Quick reference for pIC50 among some molecules
System: PC-3
Experiment: cells
Details: Homo sapiens, PC-3, 72 h
Description: Cytotoxicity against human PC-3 cells assessed as inhibition of cell growth incubated for 72 hrs by MTT assay
Scale: pIC50 equals -log10([C]), with [C] in mol/L.

smi=O=C1CCC(c2ccc(NC(=S)Nc3ccccc3)cc2)=NN1c1ccccc1 property_measured=pIC50 endpoint_result=5.11

Quick check: pIC50 of CNC(=O)c1cc(Oc2ccc(NC(=O)Nc3ccc(Cl)c(C(F)(F)F)c3)cc2)ccn1 ?
4.94

###

Tested on: PC-3
Test: Cytotoxicity against human PC-3 cells assessed as reduction in cell viability measured for 48 hrs by MTT assay
Assay type: functional, cell-based
Conditions: PC-3, 48 h
PROPERTY MEASURED: IC50
Kindly write the number and append the unit.

Quick check: IC50 of Oc1ccc(/C=N/Nc2nn3c(C(F)(F)F)nnc3c3ccccc23)cc1 ?
4.25 µM

###

Tested on: T47D
Test: cells
Settings: Homo sapiens
Description: Antiproliferative activity against human T47D cells assessed as reduction in cell viability
PROPERTY MEASURED: pIC50
Scale: pIC50 equals -log10([C]), with [C] in mol/L.

Quick check: pIC50 of O=C(NCC1CCOCC1)c1cc(C(F)(F)F)c(N2CCOCC2)nn1 ?
6.37

###

Target: Phosphatidylinositol 4,5-bisphosphate 3-kinase catalytic subunit beta isoform (Homo sapiens)
Sequence (P42338 whole entry, canonical isoform): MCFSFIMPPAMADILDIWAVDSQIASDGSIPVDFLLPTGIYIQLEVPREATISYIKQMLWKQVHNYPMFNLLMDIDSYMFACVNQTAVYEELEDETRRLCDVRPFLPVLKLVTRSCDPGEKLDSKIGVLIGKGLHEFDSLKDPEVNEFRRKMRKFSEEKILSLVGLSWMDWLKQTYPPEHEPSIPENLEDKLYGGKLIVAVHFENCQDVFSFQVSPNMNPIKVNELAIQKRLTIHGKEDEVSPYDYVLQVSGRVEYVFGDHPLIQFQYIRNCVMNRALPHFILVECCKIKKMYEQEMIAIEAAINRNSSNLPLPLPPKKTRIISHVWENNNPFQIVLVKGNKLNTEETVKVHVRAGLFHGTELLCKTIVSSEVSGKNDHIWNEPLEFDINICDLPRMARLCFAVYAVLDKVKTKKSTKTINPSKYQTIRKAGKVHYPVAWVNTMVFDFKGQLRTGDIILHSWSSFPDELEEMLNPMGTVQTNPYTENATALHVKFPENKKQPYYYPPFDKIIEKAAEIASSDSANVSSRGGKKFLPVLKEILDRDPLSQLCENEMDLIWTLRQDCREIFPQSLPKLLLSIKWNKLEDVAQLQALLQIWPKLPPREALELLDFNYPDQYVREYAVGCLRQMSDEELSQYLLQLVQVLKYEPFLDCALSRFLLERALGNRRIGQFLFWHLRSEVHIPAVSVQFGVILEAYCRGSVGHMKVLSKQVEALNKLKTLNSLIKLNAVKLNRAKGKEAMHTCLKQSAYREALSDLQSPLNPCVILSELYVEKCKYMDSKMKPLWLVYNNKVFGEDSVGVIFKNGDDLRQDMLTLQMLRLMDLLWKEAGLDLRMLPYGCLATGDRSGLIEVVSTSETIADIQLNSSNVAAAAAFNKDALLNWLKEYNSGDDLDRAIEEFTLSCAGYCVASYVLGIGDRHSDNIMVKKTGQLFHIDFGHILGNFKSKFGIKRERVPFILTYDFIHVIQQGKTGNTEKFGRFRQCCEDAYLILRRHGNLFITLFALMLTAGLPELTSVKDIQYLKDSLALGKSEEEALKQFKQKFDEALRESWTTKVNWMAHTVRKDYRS
Experiment: Inhibition of PI3Kbeta (unknown origin)
PROPERTY MEASURED: IC50 (µM)
Quick reminder: number only, in µM, skip the unit.

Quick check: IC50 of CCOC(=O)c1nn(-c2ccccc2)c(=O)c2c(N)c(C#N)c(-c3cccs3)cc12 ?
13.6

###

Tested on: MCF7
Assay: Cytotoxicity against human MCF7 cells assessed as reduction in cell viability measured for 48 hrs by MTT assay
Format: functional, cell-based
Conditions: MCF7, 48 h
PROPERTY MEASURED: IC50 (µM)
Quick reminder: number only, in µM, skip the unit.

Quick check: IC50 of Oc1ccc(/C=N/Nc2nn3c(C(F)(F)F)nnc3c3ccccc23)cc1 ?
8.04

###

System: MCF7
Assay: Cytotoxicity against human MCF7 cells assessed as reduction in cell growth incubated for 5 days by MTT assay
Type: functional, cell-based
Conditions: MCF7, 120 h
PROPERTY MEASURED: pIC50
Scale: pIC50 equals -log10([C]), with [C] in mol/L.

Recorded pIC50 for Cc1cc(Oc2ccc(NC(=O)c3sc(-c4ccccn4)nc3C)cc2)c2nncn2n1 with MCF7, please?
5.92

###

Target: Epidermal growth factor receptor (Homo sapiens, UniProt P00533)
Sequence (P00533 whole entry): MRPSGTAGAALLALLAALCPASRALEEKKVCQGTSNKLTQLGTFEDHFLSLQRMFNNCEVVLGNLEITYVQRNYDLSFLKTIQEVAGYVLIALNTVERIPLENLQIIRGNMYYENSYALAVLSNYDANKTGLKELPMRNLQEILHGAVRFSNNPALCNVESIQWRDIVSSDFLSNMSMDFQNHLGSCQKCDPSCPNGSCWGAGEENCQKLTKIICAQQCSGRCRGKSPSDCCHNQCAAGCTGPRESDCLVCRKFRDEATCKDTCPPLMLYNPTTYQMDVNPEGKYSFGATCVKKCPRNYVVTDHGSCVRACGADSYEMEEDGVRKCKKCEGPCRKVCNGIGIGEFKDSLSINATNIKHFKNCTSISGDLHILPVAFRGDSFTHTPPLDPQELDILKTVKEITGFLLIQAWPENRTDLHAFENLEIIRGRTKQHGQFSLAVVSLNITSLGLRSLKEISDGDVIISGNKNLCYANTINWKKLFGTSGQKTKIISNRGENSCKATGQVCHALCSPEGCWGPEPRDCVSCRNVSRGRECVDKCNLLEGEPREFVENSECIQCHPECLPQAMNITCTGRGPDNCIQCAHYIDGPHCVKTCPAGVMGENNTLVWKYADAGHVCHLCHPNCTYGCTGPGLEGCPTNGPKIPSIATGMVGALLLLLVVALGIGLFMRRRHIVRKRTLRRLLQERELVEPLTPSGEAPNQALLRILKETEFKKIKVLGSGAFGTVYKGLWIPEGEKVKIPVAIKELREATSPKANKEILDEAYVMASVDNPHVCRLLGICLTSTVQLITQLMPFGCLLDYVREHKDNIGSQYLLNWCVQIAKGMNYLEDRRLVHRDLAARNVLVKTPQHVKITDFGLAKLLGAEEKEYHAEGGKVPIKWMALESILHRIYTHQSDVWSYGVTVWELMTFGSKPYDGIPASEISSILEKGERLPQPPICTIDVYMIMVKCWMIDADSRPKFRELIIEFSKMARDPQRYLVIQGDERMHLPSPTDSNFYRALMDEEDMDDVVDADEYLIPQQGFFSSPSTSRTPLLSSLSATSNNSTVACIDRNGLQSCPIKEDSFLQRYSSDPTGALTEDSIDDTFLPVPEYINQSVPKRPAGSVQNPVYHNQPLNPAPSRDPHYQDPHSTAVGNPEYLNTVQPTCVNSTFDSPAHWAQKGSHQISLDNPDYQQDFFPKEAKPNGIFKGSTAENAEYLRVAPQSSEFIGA
Assay: Inhibition of EGFR (unknown origin) extracted from insect cells by ELISA method
PROPERTY MEASURED: IC50

Recorded IC50 for COc1cccc(C2=NN(c3ccc(-c4ccccc4)nn3)C(c3ccc(F)c(OC)c3)C2)c1 (stereo unspecified) with Epidermal growth factor receptor (Homo sapiens, UniProt P00533), please?
650 nM

###

Target: Phosphatidylinositol 4,5-bisphosphate 3-kinase catalytic subunit alpha isoform (Homo sapiens)
Sequence (P42336 whole entry, canonical isoform): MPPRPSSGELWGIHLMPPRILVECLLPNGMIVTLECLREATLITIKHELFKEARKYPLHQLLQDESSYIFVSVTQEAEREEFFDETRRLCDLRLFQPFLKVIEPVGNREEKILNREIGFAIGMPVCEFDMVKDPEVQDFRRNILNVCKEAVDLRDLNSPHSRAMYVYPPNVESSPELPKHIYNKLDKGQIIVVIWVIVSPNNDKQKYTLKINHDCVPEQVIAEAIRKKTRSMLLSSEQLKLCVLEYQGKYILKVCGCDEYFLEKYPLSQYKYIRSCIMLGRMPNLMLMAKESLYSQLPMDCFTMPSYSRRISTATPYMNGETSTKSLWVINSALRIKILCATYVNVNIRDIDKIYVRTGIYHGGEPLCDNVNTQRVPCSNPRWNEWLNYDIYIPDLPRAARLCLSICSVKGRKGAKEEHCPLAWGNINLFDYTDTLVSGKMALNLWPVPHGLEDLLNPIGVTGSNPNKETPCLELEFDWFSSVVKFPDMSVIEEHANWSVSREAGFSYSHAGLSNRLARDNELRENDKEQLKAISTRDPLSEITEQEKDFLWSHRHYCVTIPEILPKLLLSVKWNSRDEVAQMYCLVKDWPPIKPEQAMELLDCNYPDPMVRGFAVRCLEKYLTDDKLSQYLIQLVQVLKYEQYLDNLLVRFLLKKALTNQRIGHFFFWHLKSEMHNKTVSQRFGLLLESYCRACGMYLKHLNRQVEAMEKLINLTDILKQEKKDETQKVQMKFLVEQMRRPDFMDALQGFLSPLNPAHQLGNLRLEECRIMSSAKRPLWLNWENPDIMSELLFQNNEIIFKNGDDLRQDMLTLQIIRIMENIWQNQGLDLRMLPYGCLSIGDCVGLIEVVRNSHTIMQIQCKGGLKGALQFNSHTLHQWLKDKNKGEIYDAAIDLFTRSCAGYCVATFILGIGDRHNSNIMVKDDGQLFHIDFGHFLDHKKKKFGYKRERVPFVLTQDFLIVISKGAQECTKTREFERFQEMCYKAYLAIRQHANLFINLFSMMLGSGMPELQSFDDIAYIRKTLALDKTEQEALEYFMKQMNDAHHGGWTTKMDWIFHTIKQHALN
Test: Inhibition of PI3Kalpha (unknown origin)
PROPERTY MEASURED: pIC50
Scale: pIC50 equals -log10([C]), with [C] in mol/L.

Quick check: pIC50 of CCOC(=O)c1nn(-c2ccccc2)c(=O)c2c(N)c(C#N)c(-c3cccs3)cc12 ?
5.36
